- System: A549
- test_description: In vitro antitumor effects against human A-549 cell lines.
- Type: functional, cell-based
assay_readout: pIC50
Answers are plain numbers, as −log10 of the molar value.

Please look up its pIC50: COc1ccnc2c1C(=O)c1nccc3ccnc-2c13
6.10

// same read-out, input: COc1ccc2c(n1)C(=O)c1ncc(OC)c3ccnc-2c13
6.10

Lab note: next molecule to report on.
Please look up its pIC50: O=C1c2cccnc2-c2nccc3ccnc1c23
6.10

Origin of the recorded values: ChEMBL document CHEMBL1145990
